protocol_notes: LFS_MB_1R medulloblastoma cell growth inhibition, synergistic combos for chromothripsis tumors, cisplatin or BGB combos (AID 1671452);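 further: cells exposed for 96 hours before readout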
conditions_used: LFS_MB_1R medulloblastoma cells, at 0.5 µM, stronger effect = higher value

{"compound": "O=C(Nc1ccncc1)c1cc([N+](=O)[O-])ccc1Cl", "measure_unit": "%", "inhibition": -23.9}
{"compound": "CC(C)N=c1cc2n(-c3ccc(Cl)cc3)c3ccccc3nc-2cc1Nc1ccc(Cl)cc1", "measure_unit": "%", "inhibition": -25.1}
{"compound": "NC(=O)c1ncn(C2OC(CO)C(O)C2O)n1 (stereo not given)", "measure_unit": "%", "inhibition": -9.72}
{"compound": "O=c1cc(-c2cccc3c2Sc2ccccc2S3)oc(N2CCOCC2)c1", "measure_unit": "%", "inhibition": -10.6}
{"compound": "CO[C@H]1/C=C/O[C@@]2(C)Oc3c(C)c(O)c4c(O)c(c(C=NN5CCN(C)CC5)c(O)c4c3C2=O)NC(=O)/C(C)=C\\C=C\\[C@H](C)[C@H](O)[C@@H](C)[C@@H](O)[C@@H](C)[C@H](OC(C)=O)[C@@H]1C", "measure_unit": "%", "inhibition": -13.7}

###

protocol_notes: ovarian cancer cell viability with rucaparib, profiling panel, oncology-focused library, rucaparib conditional (AID 1508598)
conditions_used: patient-derived ovarian cancer cells, CellTiter-Glo viability, 144 h; at 0.00122 µM; OCI-C5x cells; without rucaparib; stronger effect = lower value

{"compound": "CC(C)c1onc(-c2c(Cl)cccc2Cl)c1COc1ccc(/C=C/c2cccc(C(=O)O)c2)c(Cl)c1", "measure_unit": "%", "viability": 97.6}
{"compound": "O=c1[nH]c(-c2ccc(C(F)(F)F)cc2)nc2c1CSCC2", "measure_unit": "%", "viability": 99.5}
{"compound": "Cc1ccc(S(=O)(=O)/C=C/C#N)cc1", "measure_unit": "%", "viability": 111}
{"compound": "O=C(c1ccc(OCCN2CCCCC2)cc1)c1c(-c2ccc(O)cc2)sc2cc(O)ccc12", "measure_unit": "%", "viability": 116}
{"compound": "O=c1cc(N2CCOCC2)oc2c(-c3ccccc3)cccc12", "measure_unit": "%", "viability": 103}
{"compound": "Nc1nc(Cl)nc2c1ncn2[C@H]1C[C@H](O)[C@@H](CO)O1", "measure_unit": "%", "viability": 115}
{"compound": "O=c1cc(-c2cccc3c2Sc2ccccc2S3)oc(N2CCOCC2)c1", "measure_unit": "%", "viability": 121}
{"compound": "NC(=O)Nc1sc(-c2ccc(F)cc2)cc1C(N)=O", "measure_unit": "%", "viability": 126}
{"compound": "C[C@@H](N)C1CCC(C(=O)Nc2ccncc2)CC1 (some centres not stated)", "measure_unit": "%", "viability": 109}
{"compound": "C[C@H](NC(=O)Cc1cc(F)cc(F)c1)C(=O)N[C@H](C(=O)OC(C)(C)C)c1ccccc1", "measure_unit": "%", "viability": 117}
{"compound": "CC(NC(=O)c1ccccc1N=Cc1c(O)ccc2ccccc12)c1ccccc1 (configuration not stated)", "measure_unit": "%", "viability": 121}
{"compound": "CS(=O)c1ccc(-c2nc(-c3ccc(F)cc3)c(-c3ccncc3)[nH]2)cc1 (configuration not stated)", "measure_unit": "%", "viability": 135}

The reported measurements were obtained from PubChem BioAssay.
